# protocol-description: Partition coefficient, log P of the compound
# Format: physicochemical
# recorded-conditions: octanol/water; read-out: LogP
The label is true (1) for logP below 6 and false (0) for logP equal to or exceeding 6.

chemical-smiles | assigned-category
Fc1ccc(Oc2c3c(nc4ccccc24)CCCC3)cc1 | true (1)
Cc1ccc(Oc2c3c(nc4ccccc24)CCCC3)cc1C | false (0)
c1ccc2c(N3CCOCC3)c3c(cc2c1)CCCC3 | true (1)
Clc1cccc(CCNc2c3c(nc4ccccc24)CCCC3)c1 | true (1)
COc1ccc(Nc2c3c(nc4ccccc24)CCCC3)cc1 | true (1)
c1ccc2c(NCCCCCCCNc3c4c(nc5ccccc35)CCCC4)c3c(nc2c1)CCCC3 | false (0)
CCCCCCNc1c2c(nc3ccccc13)CCCC2 | true (1)
c1ccc2c(NCCCCCNc3c4c(nc5ccccc35)CCCC4)c3c(nc2c1)CCCC3 | false (0)
Clc1ccc(Oc2c3c(nc4ccccc24)CCCC3)cc1 | true (1)
OCCNc1c2c(nc3ccccc13)CCCC2 | true (1)
Clc1ccc(Oc2c3c(nc4ccccc24)CCCC3)c(Cl)c1 | false (0)
CCCCCCCCCCCCNc1c2c(nc3ccccc13)CCCC2 | false (0)
c1ccc(CNc2c3c(nc4ccccc24)CCCC3)cc1 | true (1)

* * *

# System: Mycobacterium tuberculosis
# protocol-description: Antitubercular activity against Mycobacterium tuberculosis H37Rv
# Assay type: functional
Measured log10 of MIC of individual entries
value-type: log10 of MIC (log10 of the value in µg/mL)

chemical-smiles | numeric-result
CO[C@H]1/C=C/O[C@@]2(C)Oc3c(C)c(O)c4c(O)c(c(/C=N/N5CCN(C)CC5)c(O)c4c3C2=O)NC(=O)/C(C)=C\C=C\[C@H](C)[C@H](O)[C@@H](C)[C@@H](O)[C@@H](C)[C@H](OC(C)=O)[C@@H]1C | -0.12
CCCCCCCCNc1c2c(nc3ccccc13)CCCC2 | 0.49
OCCNc1c2c(nc3ccccc13)CCCC2 | 1.10
c1ccc2c(NCCCCCNc3c4c(nc5ccccc35)CCCC4)c3c(nc2c1)CCCC3 | 1.10
c1ccc2c(NCCCCCCCCCCNc3c4c(nc5ccccc35)CCCC4)c3c(nc2c1)CCCC3 | 1.10
c1ccc2c(NCCCCCCCNc3c4c(nc5ccccc35)CCCC4)c3c(nc2c1)CCCC3 | 1.10
CC[C@@H](CO)NCCN[C@@H](CC)CO | 0.51
NNC(=O)c1ccncc1 | -0.19
CCCCCCNc1c2c(nc3ccccc13)CCCC2 | 0.80
CCCCCCCCCCCCNc1c2c(nc3ccccc13)CCCC2 | -0.11

* * *

# protocol-description: Partition coefficient, log P of the compound
# Assay type: physicochemical
# recorded-conditions: octanol/water; read-out: LogP
value-type: logP

chemical-smiles | value-type | result
CCCCCCCCNc1c2c(nc3ccccc13)CCCC2 | logP | 6.12
c1ccc(Sc2c3c(nc4ccccc24)CCCC3)cc1 | logP | 5.82
C=CCc1ccc(Oc2c3c(nc4ccccc24)CCCC3)c(OC)c1 | logP | 6.18

Data provenance is ChEMBL document CHEMBL1149509.
